Assay: NCI Yeast Anticancer Drug Screen. Data for the rad50EPP+ strain (AID 151);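 note: 0% = growth of vehicle-treated control cultures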
Conditions: S. cerevisiae rad50 mutant strain, at 3.7 µM, stronger effect = higher value
About 79,000 compounds went through this panel and 15% of them were active in at least one assay; those are over-represented in the sample as a whole.
Listed next: entries and their corresponding growth inhibition.
Express it in %; write the number only.

Some compounds with known growth inhibition results, for comparison:
COC(=O)C1=C(C(=O)OC)SC2(S1)C(C(=O)OC)=C(C(=O)OC)Sc1c2ssc1=O; 8
O=[N+]([O-])c1ccc(C=Cc2ccccc2)cc1.[C-]#[O+].[C-]#[O+].[C-]#[O+].[Cr]; 32
COC(COC(=O)N1CCN(C=O)CC1)C1=C(N2CC2)C(=O)C(C)=C(N2CC2)C1=O (stereo not given); -38
CC(=O)O/C(=C1\C[C@H]2[C@@H]3CC=C4C[C@@H](OC(C)=O)CC[C@]4(C)[C@H]3CC[C@]2(C)C1=O)C(F)(F)F; 6

The compound `CN(C)CCSC1=Nc2ccc(Cl)cc2C(c2ccccc2Cl)=NC1` showed growth inhibition equal to -2

The compound NC1=NCC(c2ccc(Cl)cc2)O1 (stereo not given) showed growth inhibition equal to 0

The compound `O=[N+]([O-])c1cc([As](Br)c2ccc(O)c([N+](=O)[O-])c2)ccc1O` showed growth inhibition equal to 3

* * *

Assay: NCI Yeast Anticancer Drug Screen. Data for the rad52 strain (AID 147);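 note: 0% = growth of vehicle-treated control cultures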
Details: S. cerevisiae rad52 mutant growth inhibition; at 3.7 µM; stronger effect = higher value
About 79,000 compounds went through this panel and 15% of them were active in at least one assay; those are over-represented in the sample as a whole.
Listed next: entries and their corresponding growth inhibition.
Express it in %; write the number only.

O=C1NC(=S)NC(=O)C1=Cc1ccc([N+](=O)[O-])o1; -58

The compound `COC(=O)C1=C(C(=O)OC)SC2(S1)C(C(=O)OC)=C(C(=O)OC)Sc1c2ssc1=O` showed growth inhibition equal to 72

* * *

Experiment: NCI Yeast Anticancer Drug Screen. Data for the cln2 rad14 strain (AID 165);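 note: 0% = growth equal to vehicle treated cultures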
Settings: S. cerevisiae cln2 rad14 strain, at 5.0 µM (retest, dose inferred, filed as 0.5), stronger effect = higher value
This is part of a sample that, as a whole, favours compounds with a hit. Of some 79,000 tested, about 15% had one in any assay. Activity calls are given as the source filed them. Cut-off read from the data, not from the text of the source: active = growth inhibition above about 70%; inactive = the rest.
reported property: growth inhibition

Some compounds with known growth inhibition results, for comparison:
CC1CCOC(=O)/C=C/C=C/C(=O)OC2CC3OC4C5OC5(C)C(O)CC4(COC(=O)C1O)C2(C)C31CO1 (configuration not stated); 42% (inactive)
O=[N+]([O-])c1ccc(O)c(CCl)c1; 0% (inactive)
CCCCCCCCCCCCN=C(N)N; 59% (inactive)

The compound `CCOC(=S)S` showed growth inhibition equal to 12% (inactive)

The compound `Nc1ccc(Cl)cc1C(=O)c1ccccc1` showed growth inhibition equal to 57% (inactive)

The compound O=C(c1ccccc1)c1c(CC(O)c2ccncc2)n(C(=O)c2ccccc2)c2ccccc12 (configuration not stated) showed growth inhibition equal to 18% (inactive)

The compound COC12[C@@H]3N[C@@H]3CN1C1=C(C(=O)C(NCCSSCCNC3=C(C)C(=O)C4=C(C3=O)C(COC(N)=O)[C@]3(OC)C5N[C@@H]5CN43)=C(C)C1=O)[C@@H]2COC(N)=O (some centres not stated) showed growth inhibition equal to 19% (inactive)

The compound `O=[N+]([O-])c1c(Cl)sc(Cl)c1[N+](=O)[O-]` showed growth inhibition equal to 99% (active)

The compound `O=C(O)c1cc[c]([Hg])cc1` showed growth inhibition equal to -3% (inactive)

The compound `N#Cc1ccc([Se]c2ccccc2)cc1` showed growth inhibition equal to 33% (inactive)

The compound `COc1cc(OC)c(OC)cc1/C=C/[N+](=O)[O-]` showed growth inhibition equal to 9% (inactive)

The compound C[N+]1(CCCl)CC[N+](C)(CCCl)CC1 (configuration not stated) showed growth inhibition equal to 2% (inactive)

* * *

Listed next: entries and their corresponding growth inhibition.
Experiment: NCI Yeast Anticancer Drug Screen. Data for the rad50 strain (AID 155);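 note: 0% = growth of vehicle-only cultures of the same strain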
Conditions: S. cerevisiae rad50 strain growth inhibition; at 50.0 µM (retest, dose inferred, filed as 5.0); stronger effect = higher value
The panel holds about 79,000 compounds, 15% with a hit somewhere; the sample as a whole holds those more often.
Express it in %; write the number only.

Some compounds with known growth inhibition results, for comparison:
C[C@@]12CCC(=O)C=C1CC[C@H]1C2=CC[C@]2(C)C1CC[C@@]2(C)O (stereo not given in full); 60
CCOC(=O)C1=C(C(=O)OCC)C2(c3ccccc3)N(O1)c1ccccc1C2(C)C (stereo not given); 54
COc1ccc(/C=C/[N+](=O)[O-])c(OC)c1OC; 50
N#CC(C#N)=Cc1ccc([N+](=O)[O-])s1; 98
CCc1cc2c(cc1O)C(C)(C)CCC2(C)C; 7

The compound `Nc1ccc(Cl)cc1C(=O)c1ccccc1` showed growth inhibition equal to 82

The compound CC(=O)OCC1OC([S-])C(OC(C)=O)C(OC(C)=O)C1OC(C)=O.CC[PH+](CC)CC.CC[PH+](CC)CC.[Au].[Au] (stereo not given) showed growth inhibition equal to 99

The compound `CCC[N+](CCC)(CCC)CCC.N#CN=C([SH2+])[SH2+].N#CN=C([SH2+])[SH2+].[Pt+2]` showed growth inhibition equal to 7

The compound C[C@]12CCC(=O)C=C1CC[C@@H]1C2CC[C@@]2(C)C1CC[C@@H]2OC(=O)C12OC1CCC2=O (stereo not given in full) showed growth inhibition equal to 87

The compound `FC(F)(F)c1nc2ccc(SSc3ccc4nc(C(F)(F)F)[nH]c4c3)cc2[nH]1` showed growth inhibition equal to 17

* * *

Assay: NCI Yeast Anticancer Drug Screen. Data for the bub3 strain (AID 167)
Conditions: S. cerevisiae bub3 mutant strain, at 5.0 µM (retest, dose inferred, filed as 0.5)
About 79,000 compounds went through this panel and 15% of them were active in at least one assay; those are over-represented in the sample as a whole. Activity calls are given as the source filed them. No stated cut-off is given here; in the data, active means growth inhibition above about 70%; inactive means the rest.
Pick one and only one: active, inactive

Record excerpt, results attached:
Nc1cc(Cl)ccc1C(=O)c1ccccc1Cl; inactive
c1cc2c(cc1C1OC[C@H]3[C@@H](c4ccc5c(c4)OCO5)OC[C@@H]13)OCO2 (stereo partly specified); active
O=C1c2ccccc2-c2cccc3cccc1c23; inactive
Cc1c2ccccc2cc2ccccc12; inactive
CC(=O)C1CCC2C3CCC4=CC(=[N+]5CCCCC5)CCC4(C)C3CCC12C (stereo unspecified); active
OC(c1ccc(Br)cc1)C(Cl)(Cl)Cl (stereo unspecified); inactive
Br[Se]c1ccccn1; active
CCC[CH2][Sn]1([CH2]CCC)[O]N=Cc2ccccc2[O]1; active
[N-]=[N+]=NS(=O)(=O)c1cccc([N+](=O)[O-])c1; inactive
O=C(C1C(c2ccccc2)N1C(c1ccccc1)c1ccccc1)C1C(c2ccccc2)N1C(c1ccccc1)c1ccccc1 (stereo unspecified); inactive

// query For `FC(F)(F)c1nc2ccc(SSc3ccc4nc(C(F)(F)F)[nH]c4c3)cc2[nH]1` , which call appears in the assay record?
// result inactive

* * *

Test: NCI Yeast Anticancer Drug Screen. Data for the wt1 strain (AID 149);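 note: 0% = growth of vehicle-treated wt1 cultures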
Details: S. cerevisiae wt1 strain (SPY 50644) growth inhibition; at 33.0 µM; stronger effect = higher value
The panel holds about 79,000 compounds, 15% with a hit somewhere; the sample as a whole holds those more often.
Mark 0 (no) for growth inhibition values under 20%, and 1 (yes) for everything at or above.

Record excerpt, results attached:
CSc1ccccc1[As](C)C; 1 (yes)
Cc1nc2ccccc2cc1C[N+]12CN3CN(CN(C3)C1)C2; 0 (no)
O=C(O)CCCOc1cc(Cl)c(Cl)cc1Cl; 1 (yes)

// query Please indicate if the recorded growth inhibition for `CC(=O)O/C(=C1\C[C@H]2[C@@H]3CC=C4C[C@@H](OC(C)=O)CC[C@]4(C)[C@H]3CC[C@]2(C)C1=O)C(F)(F)F` meets or exceeds 20%.
// result 0 (no)

// query Please indicate if the recorded growth inhibition for `CN(N=O)C(=O)NNC(=O)N(C)N=O` meets or exceeds 20%.
// result 0 (no)

// query Please indicate if the recorded growth inhibition for COC1CC(CC2CCC(C)C(C(C)C(=O)O)O2)OC2(OC(C)(C3CCC(C)(C4OC(C5OC(O)(CO)C(C)CC5C)CC4C)O3)CC2C)C1C (configuration not stated) meets or exceeds 20%.
// result 1 (yes)

* * *

Assay: NCI Yeast Anticancer Drug Screen. Data for the mlh1 rad18 strain (AID 175)
Settings: S. cerevisiae mlh1 rad18 strain growth inhibition; at 5.0 µM (retest, dose inferred, filed as 0.5); stronger effect = higher value
The panel holds about 79,000 compounds, 15% with a hit somewhere; the sample as a whole holds those more often.
Listed next: entries and their corresponding growth inhibition.
Express it in %; write the number only.

The compound `Nc1ccc2cc(Br)ccc2c1` showed growth inhibition equal to -16
